- System: HCC 2998
- assay-comment: NCI tumour cell line growth inhibition, 48 h
Activity calls are given as the source filed them. Cut-off read from the data, not from the text of the source: active = GI50 up to about 1.1 µM and inactive = higher.
Answer with one of the outcomes active, inactive

How was COc1cc(/C=C2\CCC(C)C3=C(c4cc(OC)c(OC)c(OC)c4)C(C#N)=C(N)OC32)cc(OC)c1OC (stereo not drawn) classified in this test?
inactive

---

Each entry below carries its recorded GI50.
- Test system: OVCAR-5
- assay-comment: NCI tumour cell line growth inhibition, 48 h
The source made the active and inactive calls. No stated cut-off is given here; in the data, active = GI50 up to about 1.1 µM and inactive = higher.

Look over these answered cases.
>  <compound>
CC(=O)c1sc2n(C)c(=O)c3ccccc3[n+]2c1C

>  <test-readout>
GI50

>  <result>
> 100 µM (inactive)

$$$$
>  <compound>
Cc1c(C2=NN=C(/N=N/c3c(O)cccc3O)/C2=C/c2ccccc2)c(=O)n(-c2ccccc2)n1C

>  <test-readout>
GI50

>  <result>
> 100 µM (inactive)

$$$$

// moving on: another record for GI50
Could you share what GI50 was measured for O=C1c2[nH]c3ccccc3c2CCN2CCCCC12 (stereo not drawn) , tested on OVCAR-5?
21.6 µM (inactive)

From: ChEMBL document CHEMBL1201862
